test system: Cryptococcus neoformans; assay: Antifungal activity against Cryptococcus neoformans LA314 assessed as reduction in fungal cell growth incubated for 48 hrs by broth microdilution method; format: functional; conditions: LA314, 48 h
property.measured: MIC

{"compound": "CCCCOc1ccccc1N1CCN(CCc2nnn(CC(O)(Cn3cncn3)c3ccc(F)cc3F)n2)CC1 (configuration not stated)", "MIC": "1 to 16 µg/mL"}
{"compound": "COc1ccc(N2CCN(CCc3nnnn3C(C)C(O)(Cn3cncn3)c3ccc(F)cc3F)CC2)cc1 (configuration not stated)", "MIC": "0.5 to 16 µg/mL"}
{"compound": "C[C@H](n1nnnc1CCN1CCN(Cc2ccccc2)CC1)[C@](O)(Cn1cncn1)c1ccc(F)cc1F", "MIC": "0.12 to 16 µg/mL"}

State its MIC for this compound: C[C@H](n1nnc(CCN2CCN(C(c3ccccc3)c3ccccc3)CC2)n1)[C@](O)(Cn1cncn1)c1ccc(F)cc1F 0.25 to 16 µg/mL

State its MIC for this compound: C[C@H](n1nnnc1CCN1CCN(c2ccc(Cl)cc2)CC1)[C@](O)(Cn1cncn1)c1ccc(F)cc1F 0.12 to 16 µg/mL

State its MIC for this compound: CC(n1nnc(CCN2CCN(c3ccc([N+](=O)[O-])cc3)CC2)n1)C(O)(Cn1cncn1)c1ccc(F)cc1F (configuration not stated) 1 to 16 µg/mL

State its MIC for this compound: C[C@H](n1nnc(CCN2CCN(c3cccc(C(F)(F)F)c3)CC2)n1)[C@](O)(Cn1cncn1)c1ccc(F)cc1F 0.25 to 16 µg/mL

State its MIC for this compound: OC(Cn1cncn1)(Cn1nnc(CCN2CCN(C(c3ccccc3)c3ccccc3)CC2)n1)c1ccc(F)cc1F (configuration not stated) 1 to 16 µg/mL

State its MIC for this compound: CC(n1nnnc1CCN1CCN(c2ccc(Cl)cc2)CC1)C(O)(Cn1cncn1)c1ccc(F)cc1F (configuration not stated) 0.5 to 16 µg/mL

State its MIC for this compound: CC(n1nnnc1CCN1CCN(c2ccccc2Cl)CC1)C(O)(Cn1cncn1)c1ccc(F)cc1F (configuration not stated) 0.5 to 16 µg/mL

State its MIC for this compound: OC(Cn1cncn1)(Cn1nnc(CCN2CCN(c3ccc(Cl)cc3)CC2)n1)c1ccc(F)cc1F (configuration not stated) 1 to 16 µg/mL

State its MIC for this compound: C[C@@H](c1ncncc1F)[C@](O)(Cn1cncn1)c1ccc(F)cc1F [VORICONAZOLE] 0.015 to 0.5 µg/mL

State its MIC for this compound: COc1ccccc1N1CCN(CCc2nnnn2C(C)C(O)(Cn2cncn2)c2ccc(F)cc2F)CC1 (configuration not stated) 0.5 to 16 µg/mL

State its MIC for this compound: C[C@H](n1nnnc1CCN1CCN(c2cccc(Cl)c2)CC1)[C@](O)(Cn1cncn1)c1ccc(F)cc1F 0.12 to 16 µg/mL

###

system: Candida albicans; assay: Antifungal activity against Candida albicans assessed as reduction in fungal cell growth incubated for 48 hrs by broth microdilution method; assay type: functional
Reported values of MIC for individual entries

// known answers, use as guide
{"compound": "C[C@H](n1nnnc1CCN1CCN(c2ccccc2Cl)CC1)[C@](O)(Cn1cncn1)c1ccc(F)cc1F", "MIC": "0.12 to 16 µg/mL"}
{"compound": "COc1ccc(N2CCN(CCc3nnn(C(C)C(O)(Cn4cncn4)c4ccc(F)cc4F)n3)CC2)cc1 (configuration not stated)", "MIC": "1 to 16 µg/mL"}
{"compound": "CC(n1nnnc1CCN1CCN(c2ccccc2)CC1)C(O)(Cn1cncn1)c1ccc(F)cc1F (configuration not stated)", "MIC": "0.5 to 16 µg/mL"}
{"compound": "CC(n1nnc(CCN2CCN(c3ccc(Cl)cc3)CC2)n1)C(O)(Cn1cncn1)c1ccc(F)cc1F (configuration not stated)", "MIC": "1 to 16 µg/mL"}
{"compound": "OC(Cn1cncn1)(Cn1nnnc1CCN1CCN(c2cccc(Cl)c2)CC1)c1ccc(F)cc1F (configuration not stated)", "MIC": "0.5 to 16 µg/mL"}
{"compound": "COc1ccc(N2CCN(CCc3nnn(CC(O)(Cn4cncn4)c4ccc(F)cc4F)n3)CC2)cc1 (configuration not stated)", "MIC": "1 to 16 µg/mL"}
{"compound": "CC(n1nnnc1CCN1CCN(c2ccccc2Cl)CC1)C(O)(Cn1cncn1)c1ccc(F)cc1F (configuration not stated)", "MIC": "0.5 to 16 µg/mL"}
{"compound": "C[C@H](n1nnnc1CCN1CCN(c2ccc(Cl)cc2)CC1)[C@](O)(Cn1cncn1)c1ccc(F)cc1F", "MIC": "0.12 to 16 µg/mL"}
{"compound": "CC(n1nnc(CCN2CCN(c3ccccn3)CC2)n1)C(O)(Cn1cncn1)c1ccc(F)cc1F (configuration not stated)", "MIC": "1 to 16 µg/mL"}
{"compound": "OC(Cn1cncn1)(Cn1nnc(CCN2CCN(c3c(Cl)cccc3Cl)CC2)n1)c1ccc(F)cc1F (configuration not stated)", "MIC": "1 to 16 µg/mL"}

State its MIC for this compound: CCC(C)n1ncn(-c2ccc(N3CCN(c4ccc(OCC5COC(Cn6cncn6)(c6ccc(Cl)cc6Cl)O5)cc4)CC3)cc2)c1=O (configuration not stated) [ITRACONAZOLE] 0.007 to 0.5 µg/mL

State its MIC for this compound: CC(n1nnnc1CCN1CCN(c2cccc(Cl)c2)CC1)C(O)(Cn1cncn1)c1ccc(F)cc1F (configuration not stated) 0.5 to 16 µg/mL

State its MIC for this compound: CC(n1nnc(CCN2CCN(C(c3ccccc3)c3ccccc3)CC2)n1)C(O)(Cn1cncn1)c1ccc(F)cc1F (configuration not stated) 1 to 16 µg/mL
